Provide the reported AC50 of each item.
- system-tested: Heat shock protein HSP 90-alpha (Homo sapiens)
- Type: functional, organism-based
Activity calls are given as the source filed them.

- molecule: "Nc1cccc(Oc2c(F)c(F)c(Oc3cccc(N)c3)c(F)c2F)c1"
  AC50: "7.55 µM (active)"

Each molecule below has a reported value. Please supply its AC50.
1. Cc1ccc(CNC(=O)c2ccc(Cn3nc(C)c(Cl)c3C)o2)cc1
2. CCC(C)Nc1ccc(NC(C)CC)cc1 (stereo not given)
3. N=C(Cc1ccc(Cl)cc1Cl)NOC(=O)c1cccs1
4. COc1ccc(NC(=O)C2CCCN2S(=O)(=O)c2cccc3cccnc23)c(OC)c1 (stereo not given)

Reply:
8.04 µM (active)
4.52 µM (active)
3.59 µM (active)
1.49 µM (active)

----------
- system-tested: Large T antigen (Simian virus 40);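 also: Confirmatory-stage PubChem screen for compounds that inhibit SV40 T antigen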
- Sequence (P03070 whole entry): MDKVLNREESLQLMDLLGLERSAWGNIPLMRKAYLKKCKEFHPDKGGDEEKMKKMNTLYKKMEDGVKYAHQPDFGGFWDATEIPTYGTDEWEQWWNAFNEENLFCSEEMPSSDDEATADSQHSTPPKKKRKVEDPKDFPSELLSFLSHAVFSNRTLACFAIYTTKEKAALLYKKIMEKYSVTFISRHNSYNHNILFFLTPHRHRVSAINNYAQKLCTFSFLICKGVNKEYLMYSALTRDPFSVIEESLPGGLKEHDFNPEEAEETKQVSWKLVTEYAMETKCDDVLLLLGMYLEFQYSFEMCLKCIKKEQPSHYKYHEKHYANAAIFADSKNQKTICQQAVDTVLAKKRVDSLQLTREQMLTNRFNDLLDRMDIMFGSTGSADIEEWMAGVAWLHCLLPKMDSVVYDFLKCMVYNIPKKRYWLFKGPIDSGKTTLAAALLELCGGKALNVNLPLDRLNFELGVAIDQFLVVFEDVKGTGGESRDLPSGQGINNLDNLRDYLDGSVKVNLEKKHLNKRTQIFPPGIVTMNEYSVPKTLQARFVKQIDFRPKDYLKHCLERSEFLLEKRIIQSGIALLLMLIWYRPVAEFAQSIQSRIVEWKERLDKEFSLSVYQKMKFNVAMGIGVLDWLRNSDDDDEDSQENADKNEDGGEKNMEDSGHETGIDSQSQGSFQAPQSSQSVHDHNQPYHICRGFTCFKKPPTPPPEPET
- Format: functional, Betapolyomavirus macacae
Calls of active or inactive are those of the source.
measurement-type: IC50

- compound: "COc1cc(/C=N/NC(=O)c2ccoc2C)cc(OC)c1O"
  IC50: "33.9 µM (active)"
- compound: "O=C1ON=C(c2ccccc2)/C1=C\\c1ccco1"
  IC50: "28.2 µM (active)"
- compound: "C[C@]12CC[C@@H]3c4cc(O)c(O)cc4CC[C@H]3[C@@H]1CC[C@@H]2O"
  IC50: "> 100 µM (active)"
- compound: "COc1ccc2c(c1)C(=O)Cc1ccccc1O2"
  IC50: "86.7 µM (active)"

Each compound below has a reported value. Please supply its IC50.
1. O=C1/C(=N/n2cnnc2)c2ccccc2N1Cc1ccccc1
2. COc1cc(/C=N/NC(=O)CC2C(=O)NN=C2C)ccc1O (stereo unspecified)

Reply:
["24.8 µM (active)", "11.5 µM (active)"]

----------
- system-tested: Ubiquitin-conjugating enzyme E2 N (Homo sapiens)
- Sequence (P61088 whole entry): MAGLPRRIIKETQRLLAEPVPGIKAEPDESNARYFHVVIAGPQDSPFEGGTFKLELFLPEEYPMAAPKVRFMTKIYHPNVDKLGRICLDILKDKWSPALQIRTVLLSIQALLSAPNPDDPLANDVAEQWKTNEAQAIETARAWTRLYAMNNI
- Type: functional
Calls of active or inactive are those of the source.
Bench note: report the call from active, inactive

Here's what some known entries look like.
- molecule: "C#CCOCCOCCOCCNc1nc(N2CCN(C(=O)CCCCCCCCCCNC(=O)Cn3cc(CCCCCN)nn3)CC2)nc(N2CCN(C(=O)CCCCCCCCCCNC(=O)[C@@H](CCSC)n3cc(CCO)nn3)CC2)n1"
  classification: "active"
- molecule: "Cc1ccc(N(C(=O)c2snc(C(N)=O)c2N)C(C(=O)NCCC(C)C)c2ccco2)cc1 (stereo unspecified)"
  classification: "active"
- molecule: "Cc1ccc2cc3c(nc2c1)N(c1ccccc1)CC3"
  classification: "inactive"
- molecule: "O=C1c2cccc3cccc(c23)C(=O)N1Cc1cccnc1"
  classification: "active"
- molecule: "Nc1ccc2[nH]c(-c3cccc(-c4nc5cc(N)ccc5[nH]4)n3)nc2c1"
  classification: "active"

Here is another molecule to look at.
Query: How did this test come out for Cc1ccc(C(=O)NNC(=O)c2nn(-c3ccc(F)cc3)ccc2=O)cc1 ?
Reply: active

----------
- system-tested: Kappa-type opioid receptor (Homo sapiens)
- Sequence (P41145 whole entry): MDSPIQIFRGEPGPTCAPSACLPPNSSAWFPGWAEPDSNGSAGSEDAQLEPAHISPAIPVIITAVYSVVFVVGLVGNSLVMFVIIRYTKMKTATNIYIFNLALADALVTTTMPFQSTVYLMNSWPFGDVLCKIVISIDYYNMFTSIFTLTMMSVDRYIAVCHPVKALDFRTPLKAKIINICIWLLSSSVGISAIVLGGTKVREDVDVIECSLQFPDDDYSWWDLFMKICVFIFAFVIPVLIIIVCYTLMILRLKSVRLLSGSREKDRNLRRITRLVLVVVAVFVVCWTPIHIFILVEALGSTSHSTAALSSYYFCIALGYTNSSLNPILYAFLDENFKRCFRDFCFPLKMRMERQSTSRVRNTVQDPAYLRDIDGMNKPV
- Type: functional
measurement-type: EC50 (nM)
Numbers only, in nM.

Query: Identify EC50 associated with the molecule CCC(C)(C(=O)NC1CCCC1)N(Cc1cccs1)C(=O)c1ccccn1 (stereo unspecified)
Reply: 1860

----------
- system-tested: Sentrin-specific protease 8 (Homo sapiens, UniProt Q96LD8);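 also: luminescence read-out of SENP8 inhibition, dose-response confirmation following an ultra-high-throughput screen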
- Sequence (Q96LD8 whole entry): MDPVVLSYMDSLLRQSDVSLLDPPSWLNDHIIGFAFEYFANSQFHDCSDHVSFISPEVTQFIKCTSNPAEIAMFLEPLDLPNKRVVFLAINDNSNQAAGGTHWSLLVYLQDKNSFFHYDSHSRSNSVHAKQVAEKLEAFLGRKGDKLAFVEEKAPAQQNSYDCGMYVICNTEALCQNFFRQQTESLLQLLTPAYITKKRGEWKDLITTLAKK
- Assay type: functional
Calls of active or inactive are those of the source.
Bench note: report the call from class 1 = active, class 0 = inactive

- structure-smiles: "Oc1ccccc1/C=C/c1noc(-c2ccccc2O)n1"
  system-tested: "Sentrin-specific protease 8 (Homo sapiens, UniProt Q96LD8)"
  classification: "class 0"

Query: How did this test come out for O=C(Nc1nccs1)c1ccc(-c2ccccc2Cl)o1 ?
Reply: class 1

Query: How did this test come out for O=C(CCCc1ccccc1)c1ccccc1 ?
Reply: class 1

Query: How did this test come out for Cc1cccc(N=Nc2ccc(N(C)C)cc2)c1 ?
Reply: class 1

Query: How did this test come out for Cc1cccc(-c2cc3nc4c(c(N5CCOCC5)n3n2)CCCC4)c1 ?
Reply: class 1

Query: How did this test come out for CCOC(=O)c1c(C)[nH]c(N=Nc2cccc(OC)c2)c1C ?
Reply: class 1

Query: How did this test come out for COc1ccccc1N1C(=O)Cc2ccccc2C1=O ?
Reply: class 1

----------
Provide the reported AC50 of each item.
- system-tested: DNA repair and recombination protein RAD54-like (Homo sapiens, UniProt Q92698)
- Sequence (Q92698 whole entry): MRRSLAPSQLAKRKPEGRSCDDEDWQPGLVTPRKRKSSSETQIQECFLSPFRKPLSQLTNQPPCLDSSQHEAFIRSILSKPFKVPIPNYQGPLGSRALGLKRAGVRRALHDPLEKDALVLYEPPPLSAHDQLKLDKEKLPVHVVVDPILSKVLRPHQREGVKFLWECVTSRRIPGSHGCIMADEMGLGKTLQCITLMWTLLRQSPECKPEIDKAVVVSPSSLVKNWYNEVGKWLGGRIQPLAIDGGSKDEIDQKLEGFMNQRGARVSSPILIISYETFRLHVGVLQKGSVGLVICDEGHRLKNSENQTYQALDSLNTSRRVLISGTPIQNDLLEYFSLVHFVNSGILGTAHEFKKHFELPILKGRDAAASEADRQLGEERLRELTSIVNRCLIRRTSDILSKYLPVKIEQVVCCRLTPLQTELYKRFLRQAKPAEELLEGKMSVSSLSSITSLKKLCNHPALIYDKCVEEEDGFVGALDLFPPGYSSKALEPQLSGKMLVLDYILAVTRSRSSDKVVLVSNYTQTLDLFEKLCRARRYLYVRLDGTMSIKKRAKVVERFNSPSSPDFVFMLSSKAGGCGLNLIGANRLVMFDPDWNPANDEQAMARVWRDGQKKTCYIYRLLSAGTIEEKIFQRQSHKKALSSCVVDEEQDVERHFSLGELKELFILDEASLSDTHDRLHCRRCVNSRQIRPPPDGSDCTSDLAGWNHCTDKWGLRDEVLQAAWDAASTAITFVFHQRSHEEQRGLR
- experiment: RAD54 Holliday junction migration blockers – biochemical, fluorescence, cherry-picked samples, dose series, confirmation (AID 651657)
- Assay type: functional
Activity calls are given as the source filed them.

Worked examples follow.
- molecule: "CN(C)CCSc1nc(N)c2c3c(sc2n1)CN(C)CC3"
  AC50: "28.9 µM (active)"
- molecule: "CCN1CCCC1CNC(=O)c1cc2c(-c3cccc(OC)c3)nn(C)c2s1 (centres undefined)"
  AC50: "56.9 µM (active)"
- molecule: "Cc1cc(N2CCN(C)CC2)nc2ccc(NC(S)=NCCCN3CCN(C)CC3)cc12"
  AC50: "24.6 µM (active)"
- molecule: "O=C1c2cccc3cc([N+](=O)[O-])cc(c23)C(=O)N1CCN1CCCC1 [PINAFIDE]"
  AC50: "2.94 µM (active)"
- molecule: "Oc1ccccc1-c1nc(NCCN2CCOCC2)c2ccccc2n1"
  AC50: "29.5 µM (active)"
- molecule: "Oc1cccc2ccc(Nc3ccccn3)nc12"
  AC50: "15.5 µM (active)"
- molecule: "Cc1cc(-c2cc(NC=O)c3ncc(-c4cccc(C(=O)NCCN(C)C)c4)n3c2)cc(C)c1O"
  AC50: "8.33 µM (active)"
- molecule: "Cc1ccc2nc3c(c(Nc4ccc(O)cc4)c2c1)CCC3"
  AC50: "39 µM (active)"

Query molecule follows.
Query: Identify AC50 associated with the molecule O=C(NCCCN1CCCC1)c1cc2c(Cl)nc3ccccc3c2s1
Reply: 7.11 µM (active)

----------
Provide the reported AC50 of each item.
- system-tested: Histone-lysine N-methyltransferase NSD2 (Homo sapiens)
- Sequence (O96028 whole entry): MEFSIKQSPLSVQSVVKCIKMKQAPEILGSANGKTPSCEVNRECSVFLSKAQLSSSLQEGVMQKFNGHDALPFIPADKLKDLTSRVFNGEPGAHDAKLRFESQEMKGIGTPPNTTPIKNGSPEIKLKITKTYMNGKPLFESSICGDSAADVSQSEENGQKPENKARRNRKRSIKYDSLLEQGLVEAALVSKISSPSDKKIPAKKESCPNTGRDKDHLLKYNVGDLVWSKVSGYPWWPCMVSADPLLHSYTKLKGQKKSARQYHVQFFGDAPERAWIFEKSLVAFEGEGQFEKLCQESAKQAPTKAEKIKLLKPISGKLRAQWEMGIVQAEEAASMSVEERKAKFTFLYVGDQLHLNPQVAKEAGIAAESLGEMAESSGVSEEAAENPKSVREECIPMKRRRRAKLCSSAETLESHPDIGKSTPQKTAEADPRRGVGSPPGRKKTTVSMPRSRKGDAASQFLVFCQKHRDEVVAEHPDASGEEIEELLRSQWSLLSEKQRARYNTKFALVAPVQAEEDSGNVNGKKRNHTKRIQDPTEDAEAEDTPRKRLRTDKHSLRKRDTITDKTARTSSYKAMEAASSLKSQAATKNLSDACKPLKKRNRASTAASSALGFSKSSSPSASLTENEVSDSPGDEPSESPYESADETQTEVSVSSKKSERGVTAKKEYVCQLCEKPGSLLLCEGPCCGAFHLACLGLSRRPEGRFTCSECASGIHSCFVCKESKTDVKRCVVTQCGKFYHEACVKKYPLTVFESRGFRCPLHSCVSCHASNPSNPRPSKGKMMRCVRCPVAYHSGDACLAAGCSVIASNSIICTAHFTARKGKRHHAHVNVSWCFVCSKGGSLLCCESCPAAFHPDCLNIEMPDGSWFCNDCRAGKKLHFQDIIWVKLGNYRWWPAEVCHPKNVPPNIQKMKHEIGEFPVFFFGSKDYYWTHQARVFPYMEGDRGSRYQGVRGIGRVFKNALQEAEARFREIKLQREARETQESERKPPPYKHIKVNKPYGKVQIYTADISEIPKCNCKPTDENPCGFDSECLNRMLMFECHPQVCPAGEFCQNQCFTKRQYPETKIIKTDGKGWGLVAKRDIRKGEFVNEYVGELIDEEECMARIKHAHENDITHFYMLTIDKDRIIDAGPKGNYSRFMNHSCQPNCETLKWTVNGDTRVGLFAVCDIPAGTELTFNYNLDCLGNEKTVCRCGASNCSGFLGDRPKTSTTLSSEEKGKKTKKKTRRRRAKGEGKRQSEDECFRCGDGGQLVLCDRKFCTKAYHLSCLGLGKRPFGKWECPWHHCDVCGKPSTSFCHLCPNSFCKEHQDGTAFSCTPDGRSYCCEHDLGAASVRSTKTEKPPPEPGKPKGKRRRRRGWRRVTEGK
- Type: biochemical
Activity calls are given as the source filed them.

Worked examples follow.
- structure-smiles: "CC1=Nc2cccc3cccc(c23)N1C"
  reading: "1.25 µM (active)"
- structure-smiles: "NC1=C(Br)C(=O)c2ncccc2C1=O"
  reading: "0.164 µM (active)"

Each compound below has a reported value. Please supply its AC50.
1. Cc1cccc(N=Nc2ccc(N(C)C)cc2)c1
2. C/C(C/C(C)=C1/SC(=S)NC1=O)=C1\SC(=S)NC1=O
3. N#C/C(=C\c1ccc(O)c(O)c1)C(=O)Nc1cccc2ncccc12
4. CNCCCOc1ccc2c(c1)CCC2

Reply:
14.2 µM (active)
7.93 µM (active)
3.18 µM (active)
> 20 µM (inactive)

----------
- system-tested: UniProt:P35236
- Sequence (P35236 whole entry): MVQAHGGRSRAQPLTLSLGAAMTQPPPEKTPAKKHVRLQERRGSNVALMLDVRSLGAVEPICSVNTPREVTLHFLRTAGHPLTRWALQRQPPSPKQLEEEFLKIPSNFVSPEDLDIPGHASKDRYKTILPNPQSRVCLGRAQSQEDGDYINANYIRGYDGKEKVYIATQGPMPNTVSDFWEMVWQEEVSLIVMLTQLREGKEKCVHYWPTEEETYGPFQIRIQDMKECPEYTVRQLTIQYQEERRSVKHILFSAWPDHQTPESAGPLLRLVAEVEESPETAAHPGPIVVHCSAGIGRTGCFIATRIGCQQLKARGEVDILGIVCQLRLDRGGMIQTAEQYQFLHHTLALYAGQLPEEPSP
- experiment: redox-active compounds inhibiting HePTP phosphatase – biochemical, fluorescence, mechanism study (AID 2068)
- Format: functional
Active and inactive are the calls of the source.
Bench note: report the call from active, inactive

Here's what some known entries look like.
- compound: "CSc1ccc(OCC(=O)O)cc1C"
  classification: "inactive"
- compound: "CC1=C(C(=O)OC(C)C)C(c2ccc(Cl)cc2)n2c(sc(=Cc3ccc(OCC(=O)O)cc3)c2=O)=N1 (centres undefined)"
  classification: "active"
- compound: "CC(C)NC(=S)c1cn(CCOc2ccccc2)c2ccccc12"
  classification: "inactive"

Here is another compound to look at.
Query: How did this test come out for O=C(Nc1ccc(Cl)cc1)Nc1ccc2nc(-c3ccco3)c(-c3ccco3)nc2c1 ?
Reply: active

----------
Entries with reported AC50 on Cytochrome P450 3A4 (Homo sapiens, UniProt P08684)
Sequence (P08684 whole entry): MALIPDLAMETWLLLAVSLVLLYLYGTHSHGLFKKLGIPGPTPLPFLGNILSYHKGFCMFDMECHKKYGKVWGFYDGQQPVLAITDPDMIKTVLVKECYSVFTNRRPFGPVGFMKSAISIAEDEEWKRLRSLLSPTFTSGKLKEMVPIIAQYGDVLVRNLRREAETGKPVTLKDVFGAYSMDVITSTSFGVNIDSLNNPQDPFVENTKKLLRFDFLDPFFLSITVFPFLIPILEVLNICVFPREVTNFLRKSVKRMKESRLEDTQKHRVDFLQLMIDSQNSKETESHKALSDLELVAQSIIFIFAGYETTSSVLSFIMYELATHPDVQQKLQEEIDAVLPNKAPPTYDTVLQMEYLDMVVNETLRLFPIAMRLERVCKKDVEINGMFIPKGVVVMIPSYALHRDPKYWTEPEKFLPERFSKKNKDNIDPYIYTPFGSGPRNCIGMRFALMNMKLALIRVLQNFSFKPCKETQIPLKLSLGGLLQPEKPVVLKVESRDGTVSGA

Each compound below has a reported value. Please supply its AC50.
1. CNc1ncncc1-c1ccccc1OC
2. O=C(CCNS(=O)(=O)c1cccs1)N1CCc2ccccc2C1
3. Cc1cccc(CN2CCN(CC(=O)O)C2=O)c1
4. CC(=O)Nc1ccc(N2CCCCC2)c(C(=O)Nc2cccc(C)c2)c1
5. C[C@H]1CCCC=CC2C[C@H](O)C[C@@H]2[C@H](O)/C=C\C(=O)O1 (stereo not given in full)
6. O=[N+]([O-])c1ccc2c(c1)N=C1O[C@H](c3ccc([C@H]4OC5=Nc6cc([N+](=O)[O-])ccc6NC5=C4O)cc3)C(O)=C1N2

Reply:
0.251 µM (inconclusive)
14.1 µM (inconclusive)
15.8 µM (inconclusive)
22.4 µM (inconclusive)
31.6 µM (inconclusive)
3.16 µM (inconclusive)

Each compound below has a reported value. Please supply its AC50.
1. CCN1C(=O)C(O)(CC(=O)/C=C/C=C/c2ccccc2)c2ccccc21 (stereo not given)
2. Cc1ccc(OCC(=O)Nc2ccc(S(=O)(=O)Nc3onc(C)c3C)cc2)cc1
3. Oc1ccc(Cn2cc[nH]c2=S)cc1
4. Cc1cc(OCc2ccc([N+](=O)[O-])cc2)c2c3c(c(=O)oc2c1)CCCC3

Reply:
17.8 µM (inconclusive)
35.5 µM (inconclusive)
15.8 µM (inconclusive)
2.82 µM (inconclusive)

The origin of these recorded values is ChEMBL document CHEMBL1201862.
